For each entry below, report its percent inhibition of viability value.
- Test system: normal primary NK cells, pool 2 (3 donors) (IL-2 2.5 ng/mL)
- protocolDescription: percent inhibition of viability; higher = more inhibition
- condition: 72 h; 10000 nM
Answers are plain numbers, in %.

1. CS(=O)(=O)c1ccc(-c2cnc(N)c(C(=O)Nc3ccccc3)n2)cc1 [VE-821] (max concentration tested 10000 nM) | 15.6
2. N#CC[C@H](C1CCCC1)n1cc(-c2ncnc3[nH]ccc23)cn1 [Ruxolitinib] (max concentration tested 10000 nM) | 71.7
3. Cn1cc(-c2ccc3nnc(C(F)(F)c4ccc5ncccc5c4)n3n2)cn1 (max concentration tested 10000 nM) | 7.05
4. COc1cc(C(=O)O)ccc1NC(=O)[C@@H]1N[C@@H](CC(C)(C)C)[C@](C#N)(c2ccc(Cl)cc2F)[C@H]1c1cccc(Cl)c1F [Idasanutlin] (max concentration tested 10000 nM) | 97.8
5. Nc1nccc(-c2c(-c3ccc(F)cc3)ncn2C2CCCCC2)n1 (max concentration tested 10000 nM) | 21.2

Would you be so kind as to report percent inhibition of viability for each listed record?
1. CNC(=O)c1cc(Oc2ccc(NC(=O)Nc3ccc(Cl)c(C(F)(F)F)c3)c(F)c2)ccn1 [Regorafenib] (max concentration tested 10000 nM)
2. Cc1cc(C)c(/C=C2\C(=O)Nc3ccccc32)[nH]1 [Semaxanib] (max concentration tested 10000 nM)
3. O=C(Nc1cccc(Nc2ncc(Br)c(NCCc3cnc[nH]3)n2)c1)N1CCCC1 [BX-912] (max concentration tested 10000 nM)
4. COc1cccc2cc(-c3nc([C@H]4CC[C@H](C(=O)O)CC4)n4ncnc(N)c34)[nH]c12 [OSI-027] (max concentration tested 10000 nM)
5. NC(=O)N1CCC(CC(=O)N2CCC([C@H]3c4ncc(Br)cc4CCc4cc(Cl)cc(Br)c43)CC2)CC1 [Lonafarnib] (max concentration tested 10000 nM)
6. Nc1ccn([C@@H]2O[C@H](CO)[C@@H](O)[C@@H]2O)c(=O)n1 [Cytarabine] (max concentration tested 10000 nM)

1: 61; 2: 0.7; 3: 70.2; 4: 24.8; 5: 73.4; 6: 79.9

Here are 2 compounds. What values of percent inhibition of viability were reported for them?
1. O=C(Nc1cccc(C(F)(F)F)c1)Nc1cc(S(=O)(=O)NC2CC2)ccc1-c1ccsc1 [AGI-6780] (max concentration tested 10000 nM)
2. Nc1ncn([C@@H]2O[C@H](CO)[C@@H](O)[C@H]2O)c(=O)n1 [Azacitidine] (max concentration tested 10000 nM)

[20.2, 29.2]

---

For each record, write down the corresponding drug sensitivity score.
- Tested on: normal primary NK cells, pool 3 (3 donors) (IL-2 2.5 ng/mL)
- protocolDescription: drug sensitivity score (DSS) (DSS units); higher = more sensitive; extreme values may be limits of the assay
- condition: 72 h
Answers are plain numbers.

1) CS(=O)(=O)OCCCCOS(C)(=O)=O [Busulfan] (max concentration tested 100000 nM) | 1.42
2) Cc1ccc(F)c(NC(=O)Nc2ccc(-c3cccc4[nH]nc(N)c34)cc2)c1 [Linifanib] (max concentration tested 1000 nM) | 0
3) CC1(C)CNc2cc(NC(=O)c3cccnc3NCc3ccncc3)ccc21 [Motesanib] (max concentration tested 10000 nM) | 0
4) Cc1ccc(NC(=O)c2ccc(CN3CCN(C)CC3)cc2)cc1Nc1nc(-c2cccnc2)cs1 [Masitinib] (max concentration tested 10000 nM) | 4.72
5) COC1=CC(c2cc3ccccc3[nH]2)=N/C1=C\c1[nH]c(C)cc1C [Obatoclax] (max concentration tested 10000 nM) | 2.91

# evaluate next
O=C(Nc1ccc(-c2ccnc(Nc3ccc(N4CCOCC4)cc3)n2)cc1)C1CCCN1 (stereo unspecified) [XL019] (max concentration tested 10000 nM) tested on normal primary NK cells, pool 3 (3 donors) (IL-2 2.5 ng/mL) gave drug sensitivity score: 6.8

---

- Test system: normal primary NK cells, pool 3 (3 donors) (IL-2 2.5 ng/mL)
- protocolDescription: percent inhibition of viability; higher = more inhibition
- condition: 72 h; 25 nM
propertyMeasured: percent inhibition of viability (%)
Give bare numbers, in %.

Please review the entries below; each comes with its answer.
1. CCN1CCN(Cc2ccc(Nc3ncc(F)c(-c4cc(F)c5nc(C)n(C(C)C)c5c4)n3)nc2)CC1 [Abemaciclib] (max concentration tested 2500 nM) | -8.73
2. COc1ccc(CCc2nc3cc(-c4c(C)noc4C)ccc3n2C[C@H](C)N2CCOCC2)cc1Cl [SGC-CBP30] (max concentration tested 25000 nM) | -3.57
3. CCOc1ccn(-c2ccc(F)cc2)c(=O)c1C(=O)Nc1ccc(Oc2ccnc(N)c2Cl)c(F)c1 (max concentration tested 2500 nM) | -4.15

Attention now shifts to the item below.
Looking up Cc1nc(NC(=O)N2CCC[C@H]2C(N)=O)sc1-c1ccnc(C(C)(C)C(F)(F)F)c1 [Alpelisib] (max concentration tested 2500 nM) , I found its percent inhibition of viability recorded as -6.05

---

Give measured percent inhibition of viability for each item. Keep answers brief.
- Tested on: normal primary NK cells, pool 1 (3 donors), resting (IL-2 0 ng/mL)
- protocolDescription: percent inhibition of viability; higher = more inhibition
- condition: 72 h; 10 nM
Numbers only, in %.

Previously resolved entries follow.
1) Cc1ccc(NC(=O)c2ccc(CN3CCN(C)CC3)cc2)cc1Nc1nc(-c2cccnc2)cs1 [Masitinib] (max concentration tested 10000 nM) | -12
2) Nc1cc(C(F)(F)F)c(-c2cc(N3CCOCC3)nc(N3CCOCC3)n2)cn1 [Buparlisib] (max concentration tested 10000 nM) | -7.57
3) CNC(=O)c1ccc(-c2cnc3ncc(Cc4ccc5ncccc5c4)n3n2)cc1F [NVP-INC280] (max concentration tested 1000 nM) | -16.1
4) CNC(=O)c1cc(Oc2ccc(NC(=O)Nc3ccc(Cl)c(C(F)(F)F)c3)c(F)c2)ccn1 [Regorafenib] (max concentration tested 10000 nM) | 8.24
5) CCCS(=O)(=O)Nc1ccc(F)c(C(=O)c2c[nH]c3ncc(-c4ccc(Cl)cc4)cc23)c1F [Vemurafenib] (max concentration tested 10000 nM) | -3.02
6) C=CC(=O)N1CCC[C@@H](n2nc(-c3ccc(Oc4ccccc4)cc3)c3c(N)ncnc32)C1 [Ibrutinib] (max concentration tested 1000 nM) | 16.8

Hi there! I need percent inhibition of viability for each item below, if you can.
1. Cc1ccccc1C(C(=O)NC1CCCCC1)N(C(=O)Cn1ccnc1C)c1cccc(F)c1 (configuration not stated) [AGI-5198] (max concentration tested 10000 nM)
2. O=C(/C=C/c1cccc(S(=O)(=O)Nc2ccccc2)c1)NO [Belinostat] (max concentration tested 10000 nM)
3. O=c1[nH]cc(F)c(=O)[nH]1 [Fluorouracil] (max concentration tested 10000 nM)
4. FC(F)c1nc2ccccc2n1-c1nc(N2CCOCC2)nc(N2CCOCC2)n1 [ZSTK474] (max concentration tested 10000 nM)
5. O=C(Nc1cccnc1)N1CCC(Cc2cccc(Oc3ccc(C(F)(F)F)cn3)c2)CC1 [PF-3845] (max concentration tested 10000 nM)
6. COc1cccc2cc(-c3nc([C@H]4CC[C@H](C(=O)O)CC4)n4ncnc(N)c34)[nH]c12 [OSI-027] (max concentration tested 10000 nM)

1: -9.12; 2: 0.46; 3: 13.7; 4: -14.1; 5: -13.6; 6: 3.28

---

- Tested on: SNK-6 (IL-2 2.5 ng/mL)
- protocolDescription: percent inhibition of viability; higher = more inhibition
- condition: 72 h; 1 nM
propertyMeasured: percent inhibition of viability (%)
Numbers only, in %.

1) COc1cccc2cc(-c3nc([C@H]4CC[C@H](C(=O)O)CC4)n4ncnc(N)c34)[nH]c12 [OSI-027] (max concentration tested 10000 nM) | 4.93
2) Clc1ccc(C(c2ccccc2Cl)C(Cl)Cl)cc1 (configuration not stated) [Mitotane] (max concentration tested 10000 nM) | 11.9
3) N#Cc1ccc(COC[C@H]2O[C@@H](n3c(NCc4ccc(Cl)c(Cl)c4)nc4c(N)ncnc43)[C@H](O)[C@@H]2O)cc1 (max concentration tested 10000 nM) | 5.72
4) O=C(c1ccc(OCCN2CCCCC2)cc1)c1c(-c2ccc(O)cc2)sc2cc(O)ccc12 [Raloxifene] (max concentration tested 10000 nM) | -9.5
5) Cc1cc(C)c(CNC(=O)c2cc(-c3ccc(CN4CCOCC4)cc3)cc3c2cnn3C2CCCC2)c(=O)[nH]1 [EPZ-5687] (max concentration tested 10000 nM) | -3.6

Look at each molecule and report its percent inhibition of viability.
1. CC(C)(C)c1cnc(CSc2cnc(NC(=O)C3CCNCC3)s2)o1 [SNS-032] (max concentration tested 10000 nM)
2. O=C(Nc1cccc(C(F)(F)F)c1)Nc1cc(S(=O)(=O)NC2CC2)ccc1-c1ccsc1 [AGI-6780] (max concentration tested 10000 nM)
3. C[C@@]1(C(=O)Nc2ccc(F)nc2)CCCN1c1nc(Nc2cc(C3CC3)n[nH]2)c2cccn2n1 (max concentration tested 10000 nM)
4. c1ccc2c(CCNc3ccc(Nc4ccncc4)cc3)c[nH]c2c1 [Serdemetan] (max concentration tested 10000 nM)
5. O=C(Nc1cccnc1)N1CCC(Cc2cccc(Oc3ccc(C(F)(F)F)cn3)c2)CC1 [PF-3845] (max concentration tested 10000 nM)
6. CC[C@@H]1C(=O)N(C)c2cnc(Nc3ccc(C(=O)NC4CCN(C)CC4)cc3OC)nc2N1C1CCCC1 [BI 2536] (max concentration tested 1000 nM)
7. C[C@@H](Oc1cc(-n2cnc3ccc(CN4CCN(C)CC4)cc32)sc1C(N)=O)c1ccccc1C(F)(F)F (max concentration tested 10000 nM)

1. 17.9
2. -7.22
3. 2.3
4. 1.74
5. -10
6. 2.93
7. -6.84
